assay: qHTS profiling of the MIPE4 collection as inhibitors of Plasmodium falciparum (3D7) proliferation (AID 743344);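 further: scaled between DMSO vehicle wells and 0.29 µM artemisinin as full inhibition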; conditions: P. falciparum 3D7 in erythrocytes, SYBR Green DNA fluorescence, 72 h; at 28.5 µM unless noted
measuredQuantity: parasite growth, % of DMSO control

>>> observed("COc1cc([C@H]2Oc3cc([C@H]4Oc5cc(O)cc(O)c5C(=O)[C@H]4O)ccc3O[C@H]2CO)ccc1O")
"7.9%"
>>> observed("COc1ccc(-c2cc3nccn3c(Nc3ncccc3C(N)=O)n2)cc1OC")
"4.5%"
>>> observed("COc1cc2nc(-c3cc(F)ccc3O)nc(N[C@@H]3CNC[C@@H]3C(C)(C)O)c2cc1OC")
"6.37%"

The recorded parasite growth, % of DMSO control for entry "CN(C)c1ccccc1CN1CCCN(Cc2ccccc2N(C)C)C1c1ccncc1" equals 17.2%

The recorded parasite growth, % of DMSO control for entry "C=C1c2cccc(O)c2C(O)=C2C(=O)[C@@]3(O)C(O)=C(C(N)=O)C(=O)[C@@H](N(C)C)[C@@H]3[C@@H](O)[C@H]12" equals 23.7%

The recorded parasite growth, % of DMSO control for entry "COc1ccc(-c2ccc3ncc4c(c3c2)n(-c2ccc(N3CCNCC3)c(C(F)(F)F)c2)c(=O)n4C)cn1" equals 7.25%

The recorded parasite growth, % of DMSO control for entry "CNC(=O)c1c(-c2ccc(F)cc2)oc2cc(N(CCO)S(C)(=O)=O)c(C3CC3)cc12" equals 4.82%

The recorded parasite growth, % of DMSO control for entry CC1=C(C(=O)Nc2cc3cn[nH]c3cc2F)C(c2ccc(C(F)(F)F)cc2)CC(=O)N1 (stereo not drawn) equals 5.13%

The recorded parasite growth, % of DMSO control for entry "CNC(=O)[C@H](CC1=CN=C2C=CCC=C12)NC(=O)[C@@H](CC(=O)NO)CC(C)C" equals 22%
